test name: Example 1 single dose study: pharmacokinetics
Type: in vivo, human
test context: both sexes, human, plasma, oral, 3 mg, single 3 mg daily dose, human; read-out: mean maximum plasma concentration (Cmax)
endpoint: Cmax

Inquiry: # Cmax lookup, item O=C(Nc1nc(-c2cc(Cl)cs2)c(N2CCN(C3CCCCC3)CC2)s1)c1cnc(N2CCC(C(=O)O)CC2)c(Cl)c1 [Formula I]
Reply text: 14 to 17 ng/mL

###

test name: Example 1 single dose study: pharmacokinetics
Format: in vivo, human
test context: both sexes, human, serum; single oral dose 10 mg, healthy volunteers, final mean; read-out: AUC0-last
endpoint: AUC(0-t) (ng·h/mL)
Answers are plain numbers, in ng·h/mL.

Inquiry: # AUC(0-t) lookup, item O=C(Nc1nc(-c2cc(Cl)cs2)c(N2CCN(C3CCCCC3)CC2)s1)c1cnc(N2CCC(C(=O)O)CC2)c(Cl)c1
Reply text: 1650

###

test name: Example 1 single dose study: pharmacokinetics
Format: in vivo, human
test context: both sexes, human, plasma, po, 3 mg, single oral dose 3 mg, healthy volunteers, preliminary mean; read-out: T½ (converted)
endpoint: half-life (min)
Answers are plain numbers, in min.

Inquiry: # half-life lookup, item O=C(Nc1nc(-c2cc(Cl)cs2)c(N2CCN(C3CCCCC3)CC2)s1)c1cnc(N2CCC(C(=O)O)CC2)c(Cl)c1
Reply text: 1050

###

test name: Example 1 single dose study: pharmacokinetics
Type: in vivo, human
test context: both sexes, human, plasma, oral, 20 mg, single 20 mg daily dose, human; read-out: mean maximum plasma concentration (Cmax)
endpoint: Cmax

Inquiry: # Cmax lookup, item O=C(Nc1nc(-c2cc(Cl)cs2)c(N2CCN(C3CCCCC3)CC2)s1)c1cnc(N2CCC(C(=O)O)CC2)c(Cl)c1 [Formula I]
Reply text: 121 to 168 ng/mL

###

test name: Example 1 single dose study: pharmacokinetics
Type: in vivo, human
test context: both sexes, human, serum; single oral dose 3 mg, healthy volunteers, final mean
endpoint: AUC(0-inf) (ng·h/mL)
Answers are plain numbers, in ng·h/mL.

Inquiry: # AUC(0-inf) lookup, item O=C(Nc1nc(-c2cc(Cl)cs2)c(N2CCN(C3CCCCC3)CC2)s1)c1cnc(N2CCC(C(=O)O)CC2)c(Cl)c1 [Formula I]
Reply text: 534

###

test name: Example 1 single dose study: pharmacokinetics
Assay type: in vivo, human
test context: both sexes, human, plasma, oral, 75 mg, single 75 mg daily dose, human; read-out: mean maximum plasma concentration (Cmax)
endpoint: Cmax

Inquiry: # Cmax lookup, item O=C(Nc1nc(-c2cc(Cl)cs2)c(N2CCN(C3CCCCC3)CC2)s1)c1cnc(N2CCC(C(=O)O)CC2)c(Cl)c1
Reply text: ~473 ng/mL

###

test name: pharmacokinetics after intravenous and oral administration in dogs
Assay type: in vivo
test context: plasma; dog, oral administration; read-out: absolute bioavailability
endpoint: bioavailability (%)
Answers are plain numbers, in %.

Inquiry: # bioavailability lookup, item O=C(Nc1nc(-c2cc(Cl)cs2)c(N2CCN(C3CCCCC3)CC2)s1)c1cnc(N2CCC(C(=O)O)CC2)c(Cl)c1
Reply text: 52

###

test name: Example 2 multi-dose study: pharmacokinetics
Assay type: in vivo, human
test context: both sexes, human, in vivo, oral, 20 mg, 20 mg once daily, Study Day 14, median, simulated data at steady-state
endpoint: Tmax (h)
One number for each entry, in h.

Inquiry: # Tmax lookup, item O=C(Nc1nc(-c2cc(Cl)cs2)c(N2CCN(C3CCCCC3)CC2)s1)c1cnc(N2CCC(C(=O)O)CC2)c(Cl)c1
Reply text: 6

###

test name: Example 1 single dose study: pharmacokinetics
Format: in vivo, human
test context: both sexes, human, plasma; single oral dose 100 mg, healthy volunteers, final mean
Experimental: A single-center, randomized, double-blind, dose-rising study to determine the safety, pharmacokinetics, and pharmacodynamics of single doses of 1-(3-chloro-5-{[4-(4-chlorothiophen-2-yl)-5-(4-cyclohexylpiperazin-1-yl)thiazol-2-yl]carbamoyl} pyridin-2-yl)piperadine-4-carboxylic acid (Formula I) in normal healthy volunteers was performed. The starting dose of the drug of Formula I was 1 mg (expressed as free base). Successive dose cohorts received 3, 10, 20, 50, 75 and 100 mg. […]
endpoint: AUC(0-inf) (ng·h/mL)
One number for each entry, in ng·h/mL.

Inquiry: # AUC(0-inf) lookup, item O=C(Nc1nc(-c2cc(Cl)cs2)c(N2CCN(C3CCCCC3)CC2)s1)c1cnc(N2CCC(C(=O)O)CC2)c(Cl)c1
Reply text: 11100

###

test name: Example 1 single dose study: pharmacokinetics
Type: in vivo, human
test context: both sexes, plasma, oral; single 1 mg daily dose, human; read-out: mean time to maximum plasma concentration (Tmax)
endpoint: Tmax

Inquiry: # Tmax lookup, item O=C(Nc1nc(-c2cc(Cl)cs2)c(N2CCN(C3CCCCC3)CC2)s1)c1cnc(N2CCC(C(=O)O)CC2)c(Cl)c1
Reply text: ~6.1 h

###

test name: Example 2 multi-dose study: pharmacokinetics
Assay type: in vivo, human
test context: both sexes, human, in vivo; 10 mg once daily oral suspension, Study Day 1, mean; read-out: Cmax
endpoint: Cmax (ng/mL)
Give bare numbers, in ng/mL.

Inquiry: # Cmax lookup, item O=C(Nc1nc(-c2cc(Cl)cs2)c(N2CCN(C3CCCCC3)CC2)s1)c1cnc(N2CCC(C(=O)O)CC2)c(Cl)c1
Reply text: 53.2

###

test name: in-vitro plasma protein binding, humans
Assay type: in vitro ADME
test context: human, 0.05 to 50 μg/mL
endpoint: fraction unbound

Inquiry: # fraction unbound lookup, item O=C(Nc1nc(-c2cc(Cl)cs2)c(N2CCN(C3CCCCC3)CC2)s1)c1cnc(N2CCC(C(=O)O)CC2)c(Cl)c1
Reply text: 0.034 to 0.037

###

test name: Example 2 multi-dose study: pharmacokinetics
Assay type: in vivo, human
test context: both sexes, human, plasma, oral, 3 mg, 3 mg dose administered over about fourteen (14) days, human; read-out: mean AUC0-last
endpoint: AUC(0-t)

Inquiry: # AUC(0-t) lookup, item O=C(Nc1nc(-c2cc(Cl)cs2)c(N2CCN(C3CCCCC3)CC2)s1)c1cnc(N2CCC(C(=O)O)CC2)c(Cl)c1
Reply text: ~659 ng·h/mL

###

test name: in-vitro plasma protein binding, monkeys
Type: in vitro ADME
test context: monkey, 0.05 to 50 μg/mL
endpoint: fraction unbound

Inquiry: # fraction unbound lookup, item O=C(Nc1nc(-c2cc(Cl)cs2)c(N2CCN(C3CCCCC3)CC2)s1)c1cnc(N2CCC(C(=O)O)CC2)c(Cl)c1
Reply text: 0.024 to 0.03

###

test name: Example 1 single dose study: pharmacokinetics
Assay type: in vivo, human
test context: both sexes, human, plasma, po, 75 mg, single oral dose 75 mg, healthy volunteers, preliminary mean; read-out: T½ (converted)
endpoint: half-life (h)
One number for each entry, in h.

Inquiry: # half-life lookup, item O=C(Nc1nc(-c2cc(Cl)cs2)c(N2CCN(C3CCCCC3)CC2)s1)c1cnc(N2CCC(C(=O)O)CC2)c(Cl)c1 [Formula I]
Reply text: 15.3

###

test name: Example 1 single dose study: pharmacokinetics
Assay type: in vivo, human
test context: both sexes, human, plasma, po, 1 mg, single oral dose 1 mg, healthy volunteers, preliminary mean; read-out: T½ (converted)
endpoint: half-life
Quote the value and follow it with the unit of measurement.

Inquiry: # half-life lookup, item O=C(Nc1nc(-c2cc(Cl)cs2)c(N2CCN(C3CCCCC3)CC2)s1)c1cnc(N2CCC(C(=O)O)CC2)c(Cl)c1
Reply text: 18.9 h

###

test name: Example 1 single dose study: pharmacokinetics
Format: in vivo, human
test context: both sexes, human, plasma; single oral dose 100 mg, healthy volunteers, final mean; read-out: AUC0-last
endpoint: AUC(0-t) (ng·h/mL)
Numbers only, in ng·h/mL.

Inquiry: # AUC(0-t) lookup, item O=C(Nc1nc(-c2cc(Cl)cs2)c(N2CCN(C3CCCCC3)CC2)s1)c1cnc(N2CCC(C(=O)O)CC2)c(Cl)c1
Reply text: 10900

###

test name: Example 2 multi-dose study: pharmacokinetics
Type: in vivo, human
test context: both sexes, human, in vivo, oral, 20 mg, 20 mg once daily, Study Day 1, median
endpoint: Tmax (h)
One number for each entry, in h.

Inquiry: # Tmax lookup, item O=C(Nc1nc(-c2cc(Cl)cs2)c(N2CCN(C3CCCCC3)CC2)s1)c1cnc(N2CCC(C(=O)O)CC2)c(Cl)c1 [Formula I]
Reply text: 6

###

test name: Example 1 single dose study: pharmacokinetics
Type: in vivo, human
test context: both sexes, plasma, oral; 100 mg daily dose, human; read-out: mean time to maximum plasma concentration (Tmax)
endpoint: Tmax

Inquiry: # Tmax lookup, item O=C(Nc1nc(-c2cc(Cl)cs2)c(N2CCN(C3CCCCC3)CC2)s1)c1cnc(N2CCC(C(=O)O)CC2)c(Cl)c1 [Formula I]
Reply text: ~6.2 h

###

test name: Example 1 single dose study: pharmacokinetics
Type: in vivo, human
test context: both sexes, human, plasma; single oral dose 75 mg, healthy volunteers, final mean; read-out: AUC0-last
endpoint: AUC(0-t) (ng·h/mL)
Numbers only, in ng·h/mL.

Inquiry: # AUC(0-t) lookup, item O=C(Nc1nc(-c2cc(Cl)cs2)c(N2CCN(C3CCCCC3)CC2)s1)c1cnc(N2CCC(C(=O)O)CC2)c(Cl)c1
Reply text: 10800
